system: male ddY mice; test: Murine 6 Hz convulsion models (6 Hz, 44 mA corneal stimulation); format: in vivo; settings: Mus musculus, po, 25 min
// classify: if (ED50 < 2 mg/kg) 1 else -1

| Compound | Assigned category |
| --- | --- |
| N#Cc1c(F)cccc1-c1cc2c(n(-c3cncc(F)c3)c1=O)COc1cccnc1-2 | 1 |

q: Determine if Cc1ccc(-n2c3c(cc(-c4cccc(F)c4Cl)c2=O)-c2ncccc2OC3)cn1 shows ED50 strictly lower than 2 mg/kg.
a: -1

q: Determine if COc1cncc(-n2c3c(cc(-c4cccc(F)c4C#N)c2=O)-c2ncccc2OC3)c1 shows ED50 strictly lower than 2 mg/kg.
a: 1

q: Determine if Cc1ccc(-n2c3c(cc(-c4cccc(F)c4C#N)c2=O)-c2ncccc2OC3)cn1 shows ED50 strictly lower than 2 mg/kg.
a: 1

q: Determine if O=c1c(-c2ccccc2Cl)cc2c(n1-c1cccnc1)COc1cccnc1-2 shows ED50 strictly lower than 2 mg/kg.
a: -1

====

Form field: Time of Fall (one value per entry).
test system: male ddY mice; test: Rotarod performance test-2; assay type: in vivo; conditions: Table 3; mice, oral at the ED50 dose of the 6 Hz model, 25 minutes after administration
Form entry: value (s) — number only.

See these solved cases before continuing.
| Molecule | Reported endpoint | Units label | Experimental result |
| --- | --- | --- | --- |
| COc1cncc(-n2c3c(cc(-c4cccc(F)c4C#N)c2=O)-c2ncccc2OC3)c1 [Example 2] | Time of Fall | s | 148.0 |
| O=c1c(-c2c(F)c(F)cc(F)c2F)cc2c(n1-c1cccnc1)COc1cccnc1-2 [Example 6] | Time of Fall | s | 68.0 |
| Cc1ccc(-n2c3c(cc(-c4cccc(F)c4Cl)c2=O)-c2ncccc2OC3)cn1 [Example 4] | Time of Fall | s | 73.2 |
| N#Cc1nccnc1-c1cc2c(n(-c3ccsc3)c1=O)COc1cccnc1-2 [Example 8] | Time of Fall | s | 65.8 |

q: Given the entry O=c1c(-c2ccccc2F)cc2c(n1-c1ccccc1)COc1cccnc1-2 [Example 9] , report its measured Time of Fall.
a: 109.7

q: Given the entry O=c1c(-c2ccccc2Cl)cc2c(n1-c1cccnc1)COc1cccnc1-2 [Example 1] , report its measured Time of Fall.
a: 56.3

q: Given the entry N#Cc1ncccc1-c1cc2c(n(-c3ccccc3F)c1=O)COc1cccnc1-2 [Example 12] , report its measured Time of Fall.
a: 80.5

q: Given the entry O=c1c(-c2c(F)cccc2F)cc2c(n1-c1cccnc1)COc1cccnc1-2 [Referential Example 1] , report its measured Time of Fall.
a: 110.7

====

tested on: male ddY mice; assay: Rotarod performance test-2; format: in vivo; conditions: Table 3; time of fall relative to control compound
Form field: Ratio Relative to the Control Compound (one value per entry).
Respond using a number only.

See these solved cases before continuing.
| Molecule | System under test | Reported endpoint | Experimental result |
| --- | --- | --- | --- |
| N#Cc1ccccc1-c1cc2c(n(-c3ccc(F)cc3)c1=O)COc1cccnc1-2 | male ddY mice | Ratio Relative to the Control Compound | 6.9 |
| N#Cc1ncccc1-c1cc2c(n(-c3ccccc3F)c1=O)COc1cccnc1-2 | male ddY mice | Ratio Relative to the Control Compound | 6.6 |
| O=c1c(-c2ccccc2Cl)cc2c(n1-c1cccnc1)COc1cccnc1-2 | male ddY mice | Ratio Relative to the Control Compound | 4.6 |
| N#Cc1ncccc1-c1cc2c(n(-c3ccc(F)cc3)c1=O)COc1cccnc1-2 | male ddY mice | Ratio Relative to the Control Compound | 9.4 |
| N#Cc1ncccc1-c1cc2c(n(-c3ccccc3)c1=O)COc1cc(F)cnc1-2 | male ddY mice | Ratio Relative to the Control Compound | 7.0 |
| COc1cncc(-n2c3c(cc(-c4cccc(F)c4C#N)c2=O)-c2ncccc2OC3)c1 | male ddY mice | Ratio Relative to the Control Compound | 12.1 |

q: Given the entry O=c1c(-c2ccccc2F)cc2c(n1-c1ccccc1)COc1cccnc1-2 , report its measured Ratio Relative to the Control Compound.
a: 9.0

q: Given the entry N#Cc1ccccc1-n1nc2c(c(-c3cccnc3)c1=O)COc1ccccc1-2 [Control Compound, reference compound] , report its measured Ratio Relative to the Control Compound.
a: 1.0

q: Given the entry N#Cc1nccnc1-c1cc2c(n(-c3ccsc3)c1=O)COc1cccnc1-2 , report its measured Ratio Relative to the Control Compound.
a: 5.4

====

tested on: male ddY mice; assay: Rotarod performance test-2; format: in vivo; details: Table 4; time of fall relative to control compound
Reported endpoint: Ratio Relative to the Control Compound

See these solved cases before continuing.
| Compound | System under test | Ratio Relative to the Control Compound |
| --- | --- | --- |
| N#Cc1c(F)ccc(F)c1-c1cc2c(n(-c3cccnc3)c1=O)COc1cccnc1-2 | male ddY mice | 8.5 |
| N#Cc1c(F)cccc1-c1cc2c(n(-c3cncnc3)c1=O)COc1cccnc1-2 | male ddY mice | 7.1 |
| Cc1ncc(-n2c3c(cc(-c4cccc(F)c4C#N)c2=O)-c2ncccc2OC3)cn1 | male ddY mice | 8.3 |
| N#Cc1c(F)cccc1-c1cc2c(n(-c3cccnc3)c1=O)COc1cc(F)cnc1-2 | male ddY mice | 9.7 |

q: Given the entry N#Cc1ccccc1-n1nc2c(c(-c3cccnc3)c1=O)COc1ccccc1-2 [Control Compound, reference compound] , report its measured Ratio Relative to the Control Compound.
a: 1.0

q: Given the entry N#Cc1c(F)cccc1-c1cc2c(n(-c3cccnc3)c1=O)COc1cccc(F)c1-2 , report its measured Ratio Relative to the Control Compound.
a: 6.5

q: Given the entry Cc1c(F)cccc1-c1cc2c(n(-c3cccnc3)c1=O)COc1cccnc1-2 , report its measured Ratio Relative to the Control Compound.
a: 7.2

q: Given the entry O=c1c(-c2cccc(F)c2Cl)cc2c(n1-c1cncc(F)c1)COc1cccnc1-2 , report its measured Ratio Relative to the Control Compound.
a: 10.3

q: Given the entry N#Cc1c(F)cccc1-c1cc2c(n(-c3cncc(F)c3)c1=O)COc1cccnc1-2 , report its measured Ratio Relative to the Control Compound.
a: 7.0

q: Given the entry N#Cc1c(F)cccc1-c1cc2c(n(-c3cncc(Cl)c3)c1=O)COc1cccnc1-2 , report its measured Ratio Relative to the Control Compound.
a: 5.0

q: Given the entry COc1ncc(-n2c3c(cc(-c4cccc(F)c4C#N)c2=O)-c2ncccc2OC3)cn1 , report its measured Ratio Relative to the Control Compound.
a: 7.6

====

Form field: Therapeutic Index (one value per entry).
tested on: male ddY mice; assay: Murine 6 Hz convulsion models (6 Hz, 44 mA corneal stimulation); format: in vivo; details: TD50/ED50 (rotarod test-1 / 6 Hz convulsion model), mice
Respond using a number only.

| Molecule | Therapeutic Index |
| --- | --- |
| Cc1c(F)cccc1-c1cc2c(n(-c3cccnc3)c1=O)COc1cccnc1-2 [Example 22] | 1.91 |
| N#Cc1ccccc1-n1nc2c(c(-c3cccnc3)c1=O)COc1ccccc1-2 [Control Compound, reference compound] | 0.69 |
| O=c1c(-c2ccccc2Cl)cc2c(n1-c1cccnc1)COc1cccnc1-2 [Example 1] | 1.49 |
| COc1ncc(-n2c3c(cc(-c4cccc(F)c4C#N)c2=O)-c2ncccc2OC3)cn1 [Example 5] | 2.02 |
| O=c1c(-c2c(F)c(F)cc(F)c2F)cc2c(n1-c1cccnc1)COc1cccnc1-2 [Example 6] | 1.55 |
| O=c1c(-c2cccc(F)c2Cl)cc2c(n1-c1cncc(F)c1)COc1cccnc1-2 [Example 17] | 2.14 |
| N#Cc1ncccc1-c1cc2c(n(-c3ccc(F)cc3)c1=O)COc1cccnc1-2 [Example 11] | 2.99 |
| N#Cc1ccccc1-c1cc2c(n(-c3ccc(F)cc3)c1=O)COc1cccnc1-2 [Example 10] | 1.62 |

q: Given the entry N#Cc1ncccc1-c1cc2c(n(-c3ccccc3F)c1=O)COc1cccnc1-2 [Example 12] , report its measured Therapeutic Index.
a: 1.84

q: Given the entry O=c1c(-c2c(F)cccc2F)cc2c(n1-c1cccnc1)COc1cccnc1-2 [Referential Example 1] , report its measured Therapeutic Index.
a: 3.66

q: Given the entry Cc1ncc(-n2c3c(cc(-c4cccc(F)c4C#N)c2=O)-c2ncccc2OC3)cn1 [Example 21] , report its measured Therapeutic Index.
a: 2.12

q: Given the entry N#Cc1ncccc1-c1cc2c(n(-c3ccccc3)c1=O)COc1cc(F)cnc1-2 [Example 13] , report its measured Therapeutic Index.
a: 1.73

q: Given the entry N#Cc1c(F)cccc1-c1cc2c(n(-c3cncc(Cl)c3)c1=O)COc1cccnc1-2 [Example 20] , report its measured Therapeutic Index.
a: 1.91

====

test system: male ddY mice; assay: Murine 6 Hz convulsion models (6 Hz, 44 mA corneal stimulation); format: in vivo; details: Mus musculus, po, 25 min
// classify: if (ED50 < 2 mg/kg) true else false

Use the examples below as a reference point.
| Compound | System under test | Assigned category |
| --- | --- | --- |
| N#Cc1c(F)cccc1-c1cc2c(n(-c3cccnc3)c1=O)COc1cccc(F)c1-2 | male ddY mice | true |
| N#Cc1ncccc1-c1cc2c(n(-c3ccccc3)c1=O)COc1cc(F)cnc1-2 | male ddY mice | false |
| N#Cc1ccccc1-n1nc2c(c(-c3cccnc3)c1=O)COc1ccccc1-2 [Control Compound, reference compound] | male ddY mice | false |

q: Determine if N#Cc1c(F)cccc1-c1cc2c(n(-c3cccnc3)c1=O)COc1cc(F)cnc1-2 shows ED50 strictly lower than 2 mg/kg.
a: false

q: Determine if O=c1c(-c2c(F)c(F)cc(F)c2F)cc2c(n1-c1cccnc1)COc1cccnc1-2 shows ED50 strictly lower than 2 mg/kg.
a: false

q: Determine if N#Cc1ccccc1-c1cc2c(n(-c3ccc(F)cc3)c1=O)COc1cccnc1-2 shows ED50 strictly lower than 2 mg/kg.
a: false

q: Determine if N#Cc1ncccc1-c1cc2c(n(-c3ccccc3F)c1=O)COc1cccnc1-2 shows ED50 strictly lower than 2 mg/kg.
a: true

Every entry's value here was drawn from patent US9738656B2.
